Listing of recorded pIC50 by entry.
biological target: GST-JAK2(808-1132) (Homo sapiens); construct: GST-JAK2(808-1132); purchased Invitrogen (Carlsbad, USA) #4288; test: JAK2 kinase assay (Caliper mobility shift, LabChip 3000); assay type: biochemical
pIC50: −log10 of the molar value.

Worked examples follow.
CN1CCOC[C@@H]1c1ccc(Nc2ncc3ccn(-c4cc(F)c(CN5CCOCC5)c(F)c4)c3n2)cc1 : > 8.52
O=S1(=O)CCN(Cc2c(F)cc(-n3ccc4cnc(Nc5ccccc5)nc43)cc2F)CC1 : > 8.52
Fc1cc(-n2ccc3cnc(Nc4cccc(CN5CCOCC5)c4)nc32)cc(F)c1CN1CCOCC1 : > 8.52
Cc1ccc(Nc2ncc3ccn(-c4cc(F)c(CN5CCS(=O)(=O)CC5)c(F)c4)c3n2)cc1CN1CC(O)C1 : ≥ 8.52
COC1CCN(Cc2cc(Nc3ncc4ccn(-c5cc(F)c(CN6CCOCC6)c(F)c5)c4n3)ccn2)C1 (racemic) : ≥ 8.52
CN1CCN(c2cccc(Nc3ncc4ccn(-c5cc(F)c(CN6CCOCC6)c(F)c5)c4n3)c2)CC1 : > 8.52
Cc1cc(Nc2ncc3ccn(-c4cc(F)c(CN5CCOCC5)c(F)c4)c3n2)cc(C)c1OCCN1CCOCC1 : ≥ 8.52
CN1CCN(c2cccc(Nc3ncc4ccn(-c5cc(F)c(C(=O)N6CCOCC6)c(F)c5)c4n3)c2)CC1 : > 8.52
CC(=O)N1CCN(Cc2c(F)cc(-n3ccc4cnc(Nc5ccc(F)c(C)c5)nc43)cc2F)CC1 : 8.15
CN1CCN(c2ccc(Nc3ncc4ccn(-c5cc(F)c(CN6CCNC(=O)C6)c(F)c5)c4n3)cc2)CC1 : ≥ 8.52

**Query** # input molecule: `O=C(c1c(F)cc(-n2ccc3cnc(Nc4ccc(N5CCNC6(CC6)C5)nc4)nc32)cc1F)N1CCOCC1` ; wanted: its pIC50
**Result** 8.11

**Query** # input molecule: Fc1cc(-n2ccc3cnc(Nc4ccc(CN5CCNC(C(F)(F)F)C5)cc4)nc32)cc(F)c1CN1CCOCC1 (racemic) ; wanted: its pIC50
**Result** ≥ 8.52

**Query** # input molecule: Cc1ccc(Nc2ncc3ccn(-c4cc(F)c(CN5CCOCC5)c(F)c4)c3n2)cc1CN1C[C@H](C)NC[C@H]1C (racemic) ; wanted: its pIC50
**Result** 7.89

**Query** # input molecule: `Cc1ccc(Nc2ncc3ccn(-c4cc(F)c(CN5CCOCC5)c(F)c4)c3n2)cc1CN1CC(O)C1` ; wanted: its pIC50
**Result** ≥ 8.52

**Query** # input molecule: `Cc1ccc(Nc2ncc3ccn(-c4ccc(CC(=O)N5CCN(C)CC5)cc4)c3n2)cc1` ; wanted: its pIC50
**Result** 6.89

**Query** # input molecule: `Fc1cc(-n2ccc3cnc(Nc4ccccn4)nc32)cc(F)c1CN1CCOCC1` ; wanted: its pIC50
**Result** 6.90

----------
target: GST-JAK2(808-1132) (Homo sapiens, UniProt O60674); construct: GST-JAK2(808-1132); purchased Invitrogen (Carlsbad, USA) #4288; assay: JAK2 kinase assay (Caliper mobility shift, LabChip 3000); assay type: biochemical
Sequence (O60674 808-1132): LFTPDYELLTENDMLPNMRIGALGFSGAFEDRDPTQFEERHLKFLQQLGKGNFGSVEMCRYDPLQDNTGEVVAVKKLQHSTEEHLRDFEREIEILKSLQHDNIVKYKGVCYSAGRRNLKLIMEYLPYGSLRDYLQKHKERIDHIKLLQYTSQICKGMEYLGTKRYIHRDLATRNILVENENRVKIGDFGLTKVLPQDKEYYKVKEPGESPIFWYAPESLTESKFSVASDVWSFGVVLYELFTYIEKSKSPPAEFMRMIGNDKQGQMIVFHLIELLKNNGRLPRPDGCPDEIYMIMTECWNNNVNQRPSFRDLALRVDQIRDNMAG
Listing of recorded IC50 by entry.

Worked examples follow.
Cc1ccc(Nc2ncc3ccn(-c4cc(F)c(CN5CCS(=O)(=O)CC5)c(F)c4)c3n2)cc1CN1CCN(C)C(=O)C1 : ≤ 3 nM
CCc1ccc(-n2ccc3cnc(Nc4ccc(N5CCN(C)CC5)nc4)nc32)cc1 : ≤ 3 nM
CN1CCN(c2ccc(Nc3ncc4ccn(-c5ccc(S(C)(=O)=O)cc5)c4n3)cc2)CC1 : < 3 nM
Fc1cc(-n2ccc3cnc(Nc4ccnc(OCCN5CCOCC5)c4)nc32)cc(F)c1CN1CCOCC1 : ≤ 3 nM
Fc1cc(-n2ccc3cnc(Nc4ccc(CN5CCNCC5)nc4)nc32)cc(F)c1CN1CCOCC1 : ≤ 3 nM
Cc1ccc(Nc2ncc3ccn(-c4ccc(C(=O)N5CCOCC5)c(F)c4)c3n2)cc1CN1CCOCC1 : < 3 nM
Fc1cc(-n2ccc3cnc(Nc4cnc(N5CCNCC5)c(Cl)c4)nc32)cc(F)c1CN1CCOCC1 : ≤ 3 nM
Cc1ccc(Nc2ncc3ccn(-c4cc(F)c(CN5CCOCC5)c(F)c4)c3n2)cc1Cn1cccn1 : ≤ 3 nM

**Query** # input compound: `Cc1cc(Nc2ncc3ccn(-c4cc(F)c(CN5CCOCC5)c(F)c4)c3n2)cnc1N1C[C@@H](C)N[C@@H](C)C1` ; wanted: its IC50
**Result** ≤ 3 nM

----------
system: JAK2-dependent nuclear translocation of STAT5-GFP in U-2 OS osteosarcoma cells; test: STAT5 nuclear translocation assay (Cellomics), rhEpo stimulated U-2 OS STAT5-GFP cells; type: cell-based; conditions: Homo sapiens, U2OS; STAT5 translocation pathway
Listing of recorded IC50 by entry.
// units = nM; emit number, no label

CC1(C)NCCN(c2ccc(Nc3ncc4ccn(-c5cc(F)c(CN6CCOCC6)c(F)c5)c4n3)cn2)C1=O : 55.5
Cc1ccc(Nc2ncc3ccn(-c4cc(F)c(CN5CCS(=O)(=O)CC5)c(F)c4)c3n2)cc1CN1CCC(N(C)C)C1 (racemic) : 3.4

Now look at this entry.
**Query** # input compound: `Cc1ccc(Nc2ncc3ccn(-c4cc(F)c(CN5CCOCC5)c(F)c4)c3n2)cc1CN1CCN(C)CC1` ; wanted: its IC50
**Result** 2.8

----------
tested on: JAK2-dependent nuclear translocation of STAT5-GFP in U-2 OS osteosarcoma cells; test: STAT5 nuclear translocation assay (Cellomics), rhEpo stimulated U-2 OS STAT5-GFP cells; assay type: cell-based; conditions: Homo sapiens, U2OS; STAT5 translocation pathway
Property label: pIC50
Value format note: pIC50 is -log10 of concentration (mol/L); just state the number.

C[C@@H]1CN(Cc2c(F)cc(-n3ccc4cnc(Nc5ccc(N6CCN(C)CC6)nc5)nc43)cc2F)C[C@H](C)O1 [Example 447] : 7.93
CN(C)C1CCN(Cc2cc(Nc3ncc4ccn(-c5cc(F)c(CN6CCOCC6)c(F)c5)c4n3)ccn2)C1 (racemic) [Example 427] : 7.48
Fc1cc(-n2ccc3cnc(Nc4ccc(OCC5CCOCC5)nc4)nc32)cc(F)c1CN1CCOCC1 [Example 517] : 7.16
Cc1cc(Nc2ncc3ccn(-c4cc(F)c(CN5CCOCC5)c(F)c4)c3n2)cnc1N1C[C@@H](C)N[C@@H](C)C1 [Example 510] : 9.00
Cc1ccc(Nc2ncc3ccn(-c4ccc(C(=O)N5CCOCC5)c(F)c4)c3n2)cc1CN1CCN(C2CC2)CC1 [Example 366] : 7.19

**Query** # input molecule: CN1CCN(c2ccc(Nc3ncc4ccn(-c5cc(F)c(CN6CCS(=O)(=O)CC6)c(F)c5)c4n3)nc2)CC1 [Example 440] ; wanted: its pIC50
**Result** 7.21

**Query** # input molecule: C[C@@H]1CN(c2ncc(Nc3ncc4ccn(-c5cc(F)c(CN6CCOCC6)c(F)c5)c4n3)cc2C(F)(F)F)C[C@H](C)N1 [Example 496] ; wanted: its pIC50
**Result** 7.01

**Query** # input molecule: Cc1ccc(Nc2ncc3ccn(-c4ccc(C(=O)N5CCOCC5)c(F)c4)c3n2)cc1CN1C[C@@H](C)N[C@@H](C)C1 [Example 367] ; wanted: its pIC50
**Result** 6.84

**Query** # input molecule: Cc1ccc(Nc2ncc3ccn(-c4cc(F)c(CN5CCOCC5)c(F)c4)c3n2)cc1C(=O)N1CCN(C)CC1 [Example 451] ; wanted: its pIC50
**Result** 7.62

----------
biological target: GST-JAK2(808-1132) (Homo sapiens, UniProt O60674); construct: GST-JAK2(808-1132); purchased Invitrogen (Carlsbad, USA) #4288; assay: JAK2 kinase assay (Caliper mobility shift, LabChip 3000); assay type: biochemical
pIC50: −log10 of the molar value.
Listing of recorded pIC50 by entry.

**Query** # input compound: O=S1(=O)CCN(Cc2c(F)cc(-n3ccc4cnc(Nc5cccnc5)nc43)cc2F)CC1 [Example 182] ; wanted: its pIC50
**Result** > 8.52

**Query** # input compound: Cc1ccc(Nc2ncc3ccn(-c4cc(F)c(CN5CCNC(=O)C5)c(F)c4)c3n2)cc1CN1CCN(C)CC1 [Example 343] ; wanted: its pIC50
**Result** ≥ 8.52

**Query** # input compound: CC(=O)N1CCN(Cc2ccc(Nc3ncc4ccn(-c5ccc(C(=O)N6CCOCC6)c(F)c5)c4n3)cc2)CC1 [Example 322] ; wanted: its pIC50
**Result** > 8.52

----------
tested on: JAK2-dependent nuclear translocation of STAT5-GFP in U-2 OS osteosarcoma cells; experiment: STAT5 nuclear translocation assay (Cellomics), rhEpo stimulated U-2 OS STAT5-GFP cells; type: cell-based; settings: Homo sapiens, U2OS; STAT5 translocation pathway
Property label: pIC50
Value format note: pIC50 is -log10 of concentration (mol/L); just state the number.

Worked examples follow.
Cc1ccc(Nc2ncc3ccn(-c4cc(F)c(CN5CCOCC5)c(F)c4)c3n2)cc1Cn1cccn1 : 7.55
Fc1cc(-n2ccc3cnc(Nc4ccc([C@H]5COCCN5CCOCc5ccccc5)cc4)nc32)cc(F)c1CN1CCOCC1 : 6.27
Cc1cc(Nc2ncc3ccn(-c4cc(F)c(CN5CCOCC5)c(F)c4)c3n2)cnc1N1CCNCC1 : 8.24

**Query** # input molecule: `C[C@@H]1CN(c2ccc(Nc3ncc4ccn(-c5ccc(S(=O)(=O)NC(C)(C)C)cc5)c4n3)cn2)C[C@H](C)N1` ; wanted: its pIC50
**Result** 8.89

**Query** # input molecule: `O=C1CNCCN1c1ccc(Nc2ncc3ccn(-c4cc(F)c(CN5CCOCC5)c(F)c4)c3n2)cn1` ; wanted: its pIC50
**Result** 7.77

**Query** # input molecule: `C[C@@H]1CN(Cc2c(F)cc(-n3ccc4cnc(Nc5ccc(N6CCNCC6)nc5)nc43)cc2F)C[C@H](C)O1` ; wanted: its pIC50
**Result** 7.27

**Query** # input molecule: Cc1ccc(Nc2ncc3ccn(-c4cc(F)c(CN5CCOCC5)c(F)c4)c3n2)cc1CN1C[C@H](C)NC[C@H]1C (racemic) ; wanted: its pIC50
**Result** 7.35

**Query** # input molecule: `Cc1ccc(Nc2ncc3ccn(-c4cc(F)c(CN5CCOCC5)c(F)c4)c3n2)cc1CN1CCNC(C)(C)C1` ; wanted: its pIC50
**Result** 7.18

**Query** # input molecule: OC1CCN(c2ccc(Nc3ncc4ccn(-c5cc(F)c(CN6CCOCC6)c(F)c5)c4n3)cn2)C1 (racemic) ; wanted: its pIC50
**Result** 7.88

The values you see were collected from patent US8420657B2.
